# Test System: human CXCR4 (human, UniProt P61073 1-352)
# Sequence (P61073 whole entry): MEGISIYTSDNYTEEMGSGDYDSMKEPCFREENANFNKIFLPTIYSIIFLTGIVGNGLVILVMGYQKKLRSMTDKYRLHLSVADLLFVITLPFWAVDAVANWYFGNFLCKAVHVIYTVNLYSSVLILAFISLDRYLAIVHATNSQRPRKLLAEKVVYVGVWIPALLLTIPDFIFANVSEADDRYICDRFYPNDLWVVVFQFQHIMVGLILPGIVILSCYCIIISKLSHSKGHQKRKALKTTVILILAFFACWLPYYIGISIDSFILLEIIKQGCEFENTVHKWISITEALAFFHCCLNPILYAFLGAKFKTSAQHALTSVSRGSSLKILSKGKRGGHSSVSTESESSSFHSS
# Test Details: cell-based or functional assay
Bridges are numbered along the chain shown (N, C = ends). [ ]: non-standard residue; d: D form. 2Nal = N[C@@H](Cc1ccc2ccccc2c1)C(=O)O; Cit = NC(=O)NCCC[C@H](N)C(=O)O

{"Binder": "cyclo(YR[Cit]VR[Cit][dP]RR[2Nal]VY[Cit]K[dP]P) (SMILES CC(C)[C@@H]1NC(=O)[C@H](Cc2ccc3ccccc3c2)NC(=O)[C@H](CCCNC(=N)N)NC(=O)[C@H](CCCNC(=N)N)NC(=O)[C@H]2CCCN2C(=O)[C@H](CCCNC(N)=O)NC(=O)[C@H](CCCNC(=N)N)NC(=O)[C@H](C(C)C)NC(=O)[C@H](CCCNC(N)=O)NC(=O)[C@H](CCCNC(=N)N)NC(=O)[C@H](Cc2ccc(O)cc2)NC(=O)[C@@H]2CCCN2C(=O)[C@H]2CCCN2C(=O)[C@H](CCCCN)NC(=O)[C@H](CCCNC(N)=O)NC(=O)[C@H](Cc2ccc(O)cc2)NC1=O) [Example 25]", "IC50 (nM) Ca2+ assay (method 1)": "1000 nM"}
{"Binder": "cyclo(YR[Cit]CRGGRR[2Nal]CY[Cit]K[dP]P) (disulfide 4-11; SMILES N=C(N)NCCC[C@@H]1NC(=O)CNC(=O)CNC(=O)[C@H](CCCNC(=N)N)NC(=O)[C@@H]2CSSC[C@H](NC(=O)[C@H](Cc3ccc4ccccc4c3)NC(=O)[C@H](CCCNC(=N)N)NC1=O)C(=O)N[C@@H](Cc1ccc(O)cc1)C(=O)N[C@@H](CCCNC(N)=O)C(=O)N[C@@H](CCCCN)C(=O)N1CCC[C@@H]1C(=O)N1CCC[C@H]1C(=O)N[C@@H](Cc1ccc(O)cc1)C(=O)N[C@@H](CCCNC(=N)N)C(=O)N[C@@H](CCCNC(N)=O)C(=O)N2) [Example 52]", "IC50 (nM) Ca2+ assay (method 1)": "3.1 nM"}
{"Binder": "cyclo(YR[Cit]VR[dR]R[2Nal]VY[Cit]K[dP]P) (SMILES CC(C)[C@@H]1NC(=O)[C@H](Cc2ccc3ccccc3c2)NC(=O)[C@H](CCCNC(=N)N)NC(=O)[C@@H](CCCNC(=N)N)NC(=O)[C@H](CCCNC(=N)N)NC(=O)[C@H](C(C)C)NC(=O)[C@H](CCCNC(N)=O)NC(=O)[C@H](CCCNC(=N)N)NC(=O)[C@H](Cc2ccc(O)cc2)NC(=O)[C@@H]2CCCN2C(=O)[C@H]2CCCN2C(=O)[C@H](CCCCN)NC(=O)[C@H](CCCNC(N)=O)NC(=O)[C@H](Cc2ccc(O)cc2)NC1=O) [Example 2]", "IC50 (nM) Ca2+ assay (method 1)": "2830 nM"}
